- Test system: T-47D breast cancer cells
- method: Cell viability assay (MTT), T-47D
- Format: cell-based, human
- cond: 72 hrs treatment, 1 to 10 μM tested, ± SD, read-out: Observed IC50 for T-47D breast cancer cells
Could you please report measured pIC50 for the items listed next?
Scale explanation: pIC50 corresponds to minus log10 of a concentration expressed in moles per litre.

Fill blank: measured pIC50 of the molecule CCc1c(Cl)c(O)c(Cl)c(O)c1C(=O)O[C@@H]1[C@@H](O)[C@@H](OC)[C@@H](OC/C2=C\C=C\CC(O)/C(C)=C/C(CC)C(O[C@@H]3OC(C)(C)[C@H]4OC(c5ccccc5C)O[C@@H]4[C@@H]3OC(=O)C(C)C)/C(C)=C/C(C)=C/CC(C(C)O)OC2=O)O[C@H]1C (stereo partly drawn) is ____.
5.40

Continue with CCc1c(Cl)c(O)c(Cl)c(O)c1C(=O)O[C@@H]1[C@@H](O)[C@@H](OC)[C@@H](OC/C2=C\C=C\CC(O)/C(C)=C/C(CC)C(O[C@@H]3OC(C)(C)[C@H]4OC(c5cc(C(C)(C)C)c(O)c(C(C)(C)C)c5)O[C@@H]4[C@@H]3OC(=O)C(C)C)/C(C)=C/C(C)=C/CC(C(C)O)OC2=O)O[C@H]1C (stereo partly drawn)
5.39

Continue with CCc1c(Cl)c(O)c(Cl)c(O)c1C(=O)O[C@@H]1[C@@H](O)[C@@H](OC)[C@@H](OC/C2=C\C=C\CC(O)/C(C)=C/C(CC)C(O[C@@H]3OC(C)(C)[C@H]4OC(c5ccccc5C(F)(F)F)O[C@@H]4[C@@H]3OC(=O)C(C)C)/C(C)=C/C(C)=C/CC(C(C)O)OC2=O)O[C@H]1C (stereo partly drawn)
5.33

Data origin, for the record: patent US20090110718A1
